test-target: Rat plasma DPP-IV (Rattus norvegicus)
Construct: from tissue; host or cells: rat plasma
assay-name: Plasma DPP-IV inhibitory activity, fluorescence assay (rat plasma)
Format: biochemical
recorded-conditions: rat plasma (10-fold diluted), Gly-Pro-MCA substrate, room temperature 60 min
Counter-ions that a name gives are not always drawn.
Below, each entry is listed alongside its reported IC50.
Record the value in nM, omitting the unit from your answer.

Please review the entries below; each comes with its answer.
                                   compound                            test_target  measured
0  N#C[C@@H]1CCCN1C(=O)[C@@H]1C[C@H](Nc2ccc(C(F)(F)F)cn2)CN1 [Example 20]  Rat plasma DPP-IV (Rattus norvegicus)      0.41
1  CN(Cc1cccc(C#N)c1)[C@@H]1CN[C@H](C(=O)N2CCSC2)C1 [Example 99, dihydrochloride]  Rat plasma DPP-IV (Rattus norvegicus)       9.4
2  N#C[C@@H]1CCCN1C(=O)[C@@H]1C[C@H](NCc2ccc([N+](=O)[O-])cc2)CN1 [Example 29, dihydrochloride]  Rat plasma DPP-IV (Rattus norvegicus)      0.22

Request: IC50 of O=C([C@@H]1C[C@H](N2CCN(c3ccc([N+](=O)[O-])cn3)CC2)CN1)N1CCCC1 [Example 186, trihydrochloride] on Rat plasma DPP-IV (Rattus norvegicus)?
Result: 4.2

----------
test-target: Rat plasma DPP-IV (Rattus norvegicus, UniProt P14740)
Sequence (P14740 37-767 limits assumed): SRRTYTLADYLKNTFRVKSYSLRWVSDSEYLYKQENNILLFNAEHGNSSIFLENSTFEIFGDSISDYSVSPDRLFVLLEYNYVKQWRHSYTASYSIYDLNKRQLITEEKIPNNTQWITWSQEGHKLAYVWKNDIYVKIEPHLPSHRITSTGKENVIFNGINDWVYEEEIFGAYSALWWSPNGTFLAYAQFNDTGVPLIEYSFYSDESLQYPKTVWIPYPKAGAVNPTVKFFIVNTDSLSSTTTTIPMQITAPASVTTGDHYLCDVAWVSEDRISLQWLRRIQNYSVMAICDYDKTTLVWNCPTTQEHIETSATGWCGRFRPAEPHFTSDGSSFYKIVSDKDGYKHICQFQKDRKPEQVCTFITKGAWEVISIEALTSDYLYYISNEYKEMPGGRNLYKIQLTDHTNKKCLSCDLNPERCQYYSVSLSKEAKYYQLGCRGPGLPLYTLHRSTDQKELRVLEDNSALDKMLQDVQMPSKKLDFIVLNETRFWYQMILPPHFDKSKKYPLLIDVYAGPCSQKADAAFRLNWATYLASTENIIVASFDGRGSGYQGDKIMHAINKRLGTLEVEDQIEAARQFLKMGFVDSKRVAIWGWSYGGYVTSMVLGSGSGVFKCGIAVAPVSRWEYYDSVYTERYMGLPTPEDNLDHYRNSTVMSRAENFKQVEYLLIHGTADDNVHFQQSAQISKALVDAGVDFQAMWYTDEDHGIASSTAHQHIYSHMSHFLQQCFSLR
assay-name: Plasma DPP-IV inhibitory activity, fluorescence assay (rat plasma)
recorded-conditions: rat plasma (10-fold diluted), Gly-Pro-MCA substrate, room temperature 60 min
Where a name gives a salt, the structure may show the parent alone.
endpoint-label: pIC50
pIC50 here: minus log base 10 of the concentration, concentration in moles per litre.

>>> df
                                   compound  endpoint_label  measured
0  O=C([C@@H]1C[C@H](N2CCN(c3nc4ccc(C(F)(F)F)cc4s3)CC2)CN1)N1CCSC1 [Example 242, dihydrochloride]           pIC50      9.47

Request: Dear colleague, I am looking for the recorded pIC50 of the following compound: O=C([C@@H]1C[C@H](N2CCC(c3cc4ccccc4s3)CC2)CN1)N1CCSC1 [Example 143, dihydrochloride]
Result: 8.68

Request: Dear colleague, I am looking for the recorded pIC50 of the following compound: O=C([C@@H]1C[C@H](N2CCC(c3nc4ccc(F)cc4[nH]3)CC2)CN1)N1CCSC1 [Example 303, trihydrochloride]
Result: 8.96

Request: Dear colleague, I am looking for the recorded pIC50 of the following compound: N#C[C@@H]1CCCN1C(=O)[C@@H]1C[C@H](Nc2ncccn2)CN1 [Example 24, hydrochloride]
Result: 9.19

Request: Dear colleague, I am looking for the recorded pIC50 of the following compound: CCOC(=O)CN(CC(=O)OCC)[C@@H]1CN[C@H](C(=O)N2CCC[C@H]2C#N)C1 [Example 39, dihydrochloride]
Result: 9.26

Request: Dear colleague, I am looking for the recorded pIC50 of the following compound: O=C(O)c1ccc(N2CCN([C@@H]3CN[C@H](C(=O)N4CCSC4)C3)CC2)nc1 [Example 212, trihydrochloride]
Result: 9.12

Request: Dear colleague, I am looking for the recorded pIC50 of the following compound: O=C([C@@H]1C[C@H](N2CCC(c3nn(CCN4CCOCC4)c(=O)o3)CC2)CN1)N1CCSC1 [Example 296, trihydrochloride]
Result: 8.72

----------
test-target: Human plasma DPP-IV (Homo sapiens)
Sequence (P27487 39-766 limits assumed): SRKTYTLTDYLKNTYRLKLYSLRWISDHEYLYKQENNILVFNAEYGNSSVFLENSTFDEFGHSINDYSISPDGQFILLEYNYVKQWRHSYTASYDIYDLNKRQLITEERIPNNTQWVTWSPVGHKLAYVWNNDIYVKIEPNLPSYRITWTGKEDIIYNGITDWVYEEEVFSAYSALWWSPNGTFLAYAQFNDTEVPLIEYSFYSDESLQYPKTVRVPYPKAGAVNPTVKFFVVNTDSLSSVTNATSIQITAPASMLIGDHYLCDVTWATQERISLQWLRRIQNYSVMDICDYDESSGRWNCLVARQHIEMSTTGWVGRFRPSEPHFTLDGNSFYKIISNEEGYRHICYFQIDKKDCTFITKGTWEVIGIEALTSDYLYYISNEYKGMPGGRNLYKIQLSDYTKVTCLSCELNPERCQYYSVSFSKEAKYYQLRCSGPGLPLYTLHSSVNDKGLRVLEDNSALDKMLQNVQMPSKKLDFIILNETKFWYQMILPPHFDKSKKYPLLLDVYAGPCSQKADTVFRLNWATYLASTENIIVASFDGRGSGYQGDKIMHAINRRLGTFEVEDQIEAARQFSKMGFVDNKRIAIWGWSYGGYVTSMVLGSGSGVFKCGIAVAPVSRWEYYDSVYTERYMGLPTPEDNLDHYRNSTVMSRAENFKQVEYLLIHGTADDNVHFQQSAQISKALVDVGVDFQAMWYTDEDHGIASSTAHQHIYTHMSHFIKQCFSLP
assay-name: Plasma DPP-IV inhibitory activity, fluorescence assay (human plasma)
recorded-conditions: human plasma (10-fold diluted), Gly-Pro-MCA substrate, room temperature 60 min
Counter-ions that a name gives are not always drawn.
IC50 vs 0.6 nM: less than gives Satisfied; not less than gives Not satisfied.

As a guide, the following entries are already answered.
                                   compound  assigned_category
0  CCOC(=O)CN(CC(=O)OCC)[C@@H]1CN[C@H](C(=O)N2CCC[C@H]2C#N)C1 [Example 39, dihydrochloride]      Not satisfied
1  O=C(O)c1ccc(N2CCN([C@@H]3CN[C@H](C(=O)N4CCSC4)C3)CC2)nc1 [Example 212, trihydrochloride]          Satisfied
2  O=C([C@@H]1C[C@H](N2CCN(c3ccc([N+](=O)[O-])cn3)CC2)CN1)N1CCCC1 [Example 186, trihydrochloride]      Not satisfied
3  O=C([C@@H]1C[C@H](N2CCC(c3nn(CCN4CCOCC4)c(=O)o3)CC2)CN1)N1CCSC1 [Example 296, trihydrochloride]      Not satisfied
4  O=C([C@@H]1C[C@H](N2CCC(c3cc4ccccc4s3)CC2)CN1)N1CCSC1 [Example 143, dihydrochloride]      Not satisfied

Field: next compound
Request: Hello, is IC50 of the following compound strictly smaller than 0.6 nM? N#C[C@@H]1CCCN1C(=O)[C@@H]1C[C@H](NCc2ccc([N+](=O)[O-])cc2)CN1 [Example 29, dihydrochloride]
Result: Satisfied

----------
Below, each entry is listed alongside its reported IC50.
test-target: Human plasma DPP-IV (Homo sapiens)
Construct: from tissue; host or cells: human plasma
assay-name: Plasma DPP-IV inhibitory activity, fluorescence assay (human plasma)
Format: biochemical
recorded-conditions: human plasma (10-fold diluted), Gly-Pro-MCA substrate, room temperature 60 min
Structures can show the parent of a compound that is named as a salt.
Record the value in nM, omitting the unit from your answer.

Please review the entries below; each comes with its answer.
                                   molecule  endpoint_unit  measured
0  CN(Cc1cccc(C#N)c1)[C@@H]1CN[C@H](C(=O)N2CCSC2)C1 [Example 99, dihydrochloride]             nM       6.8
1  N#C[C@@H]1CCCN1C(=O)[C@@H]1C[C@H](Nc2ncccn2)CN1 [Example 24, hydrochloride]             nM      0.51
2  N#C[C@@H]1CCCN1C(=O)[C@@H]1C[C@H](Nc2ccc(C(F)(F)F)cn2)CN1 [Example 20]             nM      0.54

# next molecule below
Request: IC50 of O=C([C@@H]1C[C@H](N2CCN(c3nc4ccc(C(F)(F)F)cc4s3)CC2)CN1)N1CCSC1 [Example 242, dihydrochloride] on Human plasma DPP-IV (Homo sapiens)?
Result: 0.33
